// data source = the RNAGym collection of RNA variant scans (doi:10.7554/elife.80360)

B1: HDV Ribozyme (parent)
chain: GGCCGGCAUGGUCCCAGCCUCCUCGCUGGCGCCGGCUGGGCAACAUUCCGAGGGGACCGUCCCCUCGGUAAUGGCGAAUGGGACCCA

- Variants of: B1
- Measurement Notes: self-cleavage, relative activity (ratio to wild type); higher = more cleavage; co-transcriptional
Would you mind sorting the entries by self-cleavage according to these classes? A = under 0.3, B = from 0.3 up to 0.6, C = 0.6 and over

See these solved cases before continuing.
{"columns": ["Variant Descriptor", "Category"],
 "data": [
  ["U65C", "C"],
  ["C21G G52U", "A"],
  ["C33U A77U", "B"],
  ["G6A A71C", "A"],
  ["U23A G73A", "B"],
  ["U47C G55C", "C"]
]}

Band for the recorded self-cleavage of G29C U72G ?
A

Class for G35U C49A ?
B

Consider G28A C58U . To which self-cleavage class does it belong?
A

Please report the category associated with G54U U72G , nothing else.
C
